biological target: human norepinephrine transporter (NET) (Homo sapiens (Human)); experiment: Scintillation Proximity Assay (SPA) competition binding, human NET; details: recombinant hNET-CHO membranes, [3H]nisoxetine
Sequence (P23975 whole entry): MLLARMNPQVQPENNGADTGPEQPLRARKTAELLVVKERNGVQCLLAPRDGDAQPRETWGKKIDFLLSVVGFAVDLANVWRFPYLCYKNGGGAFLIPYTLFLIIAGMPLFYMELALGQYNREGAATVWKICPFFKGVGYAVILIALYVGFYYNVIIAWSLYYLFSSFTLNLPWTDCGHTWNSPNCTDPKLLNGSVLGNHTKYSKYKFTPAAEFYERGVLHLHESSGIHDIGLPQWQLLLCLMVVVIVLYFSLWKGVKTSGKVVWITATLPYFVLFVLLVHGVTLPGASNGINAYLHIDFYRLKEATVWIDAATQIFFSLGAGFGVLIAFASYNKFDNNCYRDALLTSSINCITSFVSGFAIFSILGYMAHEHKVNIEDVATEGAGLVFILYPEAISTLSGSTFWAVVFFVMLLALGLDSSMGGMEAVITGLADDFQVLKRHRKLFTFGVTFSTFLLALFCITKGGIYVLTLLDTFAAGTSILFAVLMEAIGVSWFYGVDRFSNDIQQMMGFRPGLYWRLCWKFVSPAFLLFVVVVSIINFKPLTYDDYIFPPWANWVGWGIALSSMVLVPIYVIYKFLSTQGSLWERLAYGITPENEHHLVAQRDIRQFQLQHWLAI
# label = true (1) if pIC50 NET >= 6 else false (0)

Item N#Cc1ccc(Oc2ccccc2)c(N2CCC3(CC2)CNCCO3)c1 with pIC50 NET of 6 or above?
true (1)

Is pIC50 NET for Fc1cccc(Oc2cc(F)c(F)cc2N2CCC3(CCCNC3)C2)c1 (centres unmarked) at or above 6?
true (1)

Check this compound for pIC50 NET at or above 6: Cl.Fc1cccc(Oc2cccc(N3CCC4(CC3)CNCCO4)n2)c1
false (0)

Can Fc1c(Oc2ccccc2)cccc1N1CCC2(CC1)CNCCO2 be said to have pIC50 NET at or above 6?
true (1)

Determine whether measured pIC50 NET meets or exceeds 6 for Cl.Fc1cccc(Oc2cc(F)cc(N3CCC4(CC3)CNCCO4)c2)c1
true (1)

Item Fc1cccc(Oc2cc(C(F)(F)F)nc(N3CCC4(CC3)CNCCN4)n2)c1 with pIC50 NET of 6 or above?
true (1)

Please check the record OC1CNCCC12CCN(c1nc(Oc3cccc(F)c3)cc(C(F)(F)F)n1)C2 (centres unmarked) [Example 96] and state if its pIC50 NET is at or above 6.
true (1)

Tell me whether pIC50 NET is at least 6 here: Fc1cccc(Oc2cccc(N3CCC4(CC3)CNCCO4)c2F)c1
true (1)

Hello, I need to know if Cc1cc(Oc2cccc(C(F)(F)F)c2)nc(N2CCC3(CC2)CNCCO3)n1.Cl has measured pIC50 NET not below 6. Thanks!
false (0)

Textbook exercise: given the entry Cl.Fc1cccc(Oc2cc(C3CC3)nc(N3CCC4(CC3)CNCCO4)n2)c1 , state whether its pIC50 NET is greater than or equal to 6.
true (1)

Determine whether this compound has pIC50 NET no lower than 6: Fc1cccc(Oc2cc(F)c(F)cc2N2CCC3(CNCCO3)C2)c1 (centres unmarked)
true (1)

Does the compound Fc1cccc(Oc2ccc(F)c(N3CCC4(CC3)CNCCO4)c2F)c1 have recorded pIC50 NET that is 6 or more?
true (1)

Could you tell me if the measured pIC50 NET of Fc1cccc(Oc2cc(F)cc(N3CCC4(CC3)CNCCO4)c2)c1 reaches 6 or more?
true (1)

Given the entry Fc1cccc(Oc2cc(F)cc(N3CCC4(CCNC4)CC3)c2)c1 , answer whether its pIC50 NET meets or surpasses 6.
true (1)

Determine whether this compound has pIC50 NET no lower than 6: Cc1c(C#N)cc(N2CCC3(CC2)CNCCO3)cc1Oc1cccc(F)c1.Cl
true (1)

// inclusive: pIC50 NET at least 6? input: Cl.O=C1CCNCC12CCN(c1nc(Oc3cccc(F)c3)cc(C(F)(F)F)n1)C2 (centres unmarked)
true (1)

Does the reported pIC50 NET for Cl.Fc1ccc(Oc2cc(C(F)(F)F)nc(N3CCC4(CC3)CNCCO4)n2)cc1 fall at or above the 6 mark?
false (0)

Answer whether pIC50 NET of Fc1cccc(Oc2cc(F)c(F)cc2N2CCC3(CCNCC34OCCO4)C2)c1 (centres unmarked) is greater than or equal to 6.
true (1)

Record Cc1cnc(N2CCC3(CC2)CNCCO3)nc1Oc1cccc(F)c1.Cl ; criterion: pIC50 NET no lower than 6. Met?
false (0)

# bool: pIC50 NET of Fc1cccc(Oc2cc(F)c(F)cc2N2CCC3(CC2)CNCCO3)c1 >= 6
false (0)

Hello, I need to know if COc1cc(Cc2ccccc2)nc(N2CCC3(CC2)CNCCO3)n1.Cl has measured pIC50 NET not below 6. Thanks!
false (0)

Determine whether this compound has pIC50 NET no lower than 6: Cl.N#Cc1c(C(F)(F)F)cc(Oc2cccc(F)c2)nc1N1CCC2(CC1)CNCCO2
true (1)

Check if pIC50 NET >= 6 (inclusive). Item: Fc1cccc(Oc2cc(C(F)(F)F)nc(N3CC4(CNCCO4)C3)n2)c1
true (1)

* * *

molecular target: human norepinephrine transporter (NET) (Homo sapiens (Human)); assay: Scintillation Proximity Assay (SPA) competition binding, human NET; conditions: recombinant hNET-CHO membranes, [3H]nisoxetine
Parameter threshold = 6. Response is Met when pIC50 NET meets or exceeds it, else Not met.

Please indicate if the recorded pIC50 NET for Cc1cc(Oc2cccnc2)nc(N2CCC3(CC2)CNCCO3)n1.Cl meets or exceeds 6.
Not met

Form field: pIC50 NET at least 6? Entry: Fc1cccc(Oc2cccc(N3CCC4(CC3)CNCCO4)c2)c1
Met

State whether the measured pIC50 NET reaches 6, counting equality as reaching it, for N#Cc1ccc(Oc2ccccc2)cc1N1CCC2(CC1)CNCCO2
Not met

Could you verify whether the entry O=S1(=O)CCNCC12CCN(c1nc(Oc3cccc(F)c3)cc(C(F)(F)F)n1)CC2 shows pIC50 NET of no less than 6?
Not met

Does Cl.Fc1cccc(Oc2cc(C(F)(F)F)cc(N3CCC4(CC3)CNCCO4)n2)c1 have a reported pIC50 NET of at least 6?
Met

State whether the measured pIC50 NET reaches 6, counting equality as reaching it, for Cl.N#Cc1cc(Oc2cccc(F)c2)nc(N2CCC3(CC2)CNCCO3)c1
Met

Check if pIC50 NET >= 6 (inclusive). Item: Cl.Fc1cccc(Oc2cncc(N3CCC4(CC3)CNCCO4)n2)c1
Not met

Has N#Cc1cc(Oc2ccccc2)cc(N2CCC3(CC2)CNCCO3)c1 a recorded pIC50 NET greater than or equal to 6?
Met

Given the entry O=S1(=O)CCNCC12CCN(c1cc(F)c(F)cc1Oc1cccc(F)c1)CC2 , answer whether its pIC50 NET meets or surpasses 6.
Not met

Is reported pIC50 NET greater than or equal to 6 here: CN1CCNCC12CCN(c1nc(Oc3cccc(F)c3)cc(C(F)(F)F)n1)CC2
Met

State whether the measured pIC50 NET reaches 6, counting equality as reaching it, for Fc1cccc(Oc2cc(C(F)(F)F)nc(N3CCC4(CNCCC45OCCO5)C3)n2)c1 (stereo not drawn)
Met

Record Cl.N#Cc1cccc(Oc2cc(C(F)(F)F)nc(N3CCC4(CC3)CNCCO4)n2)c1 ; criterion: pIC50 NET no lower than 6. Met?
Not met

Does the compound COc1cc(Oc2cccc(F)c2)nc(N2CCC3(CC2)CNCCO3)n1.Cl have recorded pIC50 NET that is 6 or more?
Met

Is pIC50 NET at least 6? Consider O=C1CCNCC12CCN(c1cc(F)c(F)cc1Oc1cccc(F)c1)C2 (stereo not drawn)
Not met

Is pIC50 NET at least 6? Consider CSc1cc(Oc2cccc(F)c2)nc(N2CCC3(CC2)CNCCO3)n1.Cl
Met

Assess whether reported pIC50 NET for Cl.Fc1cccc(Oc2ccnc(N3CCC4(CC3)CNCCO4)n2)c1 sits at 6 or higher.
Not met

Please indicate if the recorded pIC50 NET for COc1cccc(Oc2cc(C)nc(N3CCC4(CC3)CNCCO4)n2)c1.Cl meets or exceeds 6.
Not met

Reported pIC50 NET reaches at least 6 for Cl.N#Cc1cc(Oc2cccc(F)c2)nc(N2CCC3(CC2)CNCCO3)n1 ?
Met

hey, is pIC50 NET for this one >= 6? Cl.Fc1cccc(Oc2cc(F)c(F)cc2N2CCC3(CC2)CNCC(F)(F)O3)c1
Not met

API: above_or_equal(metric=pIC50 NET, cutoff=6) for item Cc1cc(Oc2cccc(OC(F)(F)F)c2)nc(N2CCC3(CC2)CNCCO3)n1.Cl
Not met

Dear colleague, could you confirm whether CN1CCCNCC12CCN(c1nc(Oc3cccc(F)c3)cc(C(F)(F)F)n1)CC2 has pIC50 NET at or above 6?
Met

Is pIC50 NET at least 6? Consider c1ccc(Cc2cccc(N3CCC4(CC3)CNCCO4)c2)cc1
Not met

Confirm if pIC50 NET reported for the compound Cl.Fc1cccc(Oc2cc(C(F)(F)F)nc(N3CCC4(CC3)CNCC(F)(F)O4)n2)c1 is 6 or above.
Not met

Could you verify whether the entry Cc1cc(Oc2ccccc2C)nc(N2CCC3(CC2)CNCCO3)n1.Cl shows pIC50 NET of no less than 6?
Not met

Please tell me: is the compound Cl.Fc1cccc(Oc2cc(F)c(F)cc2N2CCC3(CCNCC34OCCO4)C2)c1 (stereo not drawn) at or over 6 in terms of pIC50 NET?
Met

Reported pIC50 NET at or above 6? Fc1cccc(Oc2cc(N3CCC4(CC3)CNCCO4)c(F)cc2F)c1
Not met

Could you verify whether the entry Cc1cccc(Oc2cc(C)nc(N3CCC4(CC3)CNCCO4)n2)c1.Cl shows pIC50 NET of no less than 6?
Not met

Textbook exercise: given the entry Fc1cccc(Oc2cc(F)c(F)cc2N2CCC3(CCCNC3)CC2)c1 , state whether its pIC50 NET is greater than or equal to 6.
Met

I'd appreciate it if you could say whether O=C1CNCC2(CCN(c3nc(Oc4cccc(F)c4)cc(C(F)(F)F)n3)CC2)N1 has pIC50 NET at least equal to 6.
Not met

hey, is pIC50 NET for this one >= 6? Cl.Fc1cccc(Oc2cc(C(F)(F)F)nc(N3CCC4(CC3)CNCCO4)n2)c1
Met
